The origin of these recorded values is paper PMC3548977.

- tested target: SMO^WT (Mus musculus, UniProt P56726)
- Sequence (P56726 33-793): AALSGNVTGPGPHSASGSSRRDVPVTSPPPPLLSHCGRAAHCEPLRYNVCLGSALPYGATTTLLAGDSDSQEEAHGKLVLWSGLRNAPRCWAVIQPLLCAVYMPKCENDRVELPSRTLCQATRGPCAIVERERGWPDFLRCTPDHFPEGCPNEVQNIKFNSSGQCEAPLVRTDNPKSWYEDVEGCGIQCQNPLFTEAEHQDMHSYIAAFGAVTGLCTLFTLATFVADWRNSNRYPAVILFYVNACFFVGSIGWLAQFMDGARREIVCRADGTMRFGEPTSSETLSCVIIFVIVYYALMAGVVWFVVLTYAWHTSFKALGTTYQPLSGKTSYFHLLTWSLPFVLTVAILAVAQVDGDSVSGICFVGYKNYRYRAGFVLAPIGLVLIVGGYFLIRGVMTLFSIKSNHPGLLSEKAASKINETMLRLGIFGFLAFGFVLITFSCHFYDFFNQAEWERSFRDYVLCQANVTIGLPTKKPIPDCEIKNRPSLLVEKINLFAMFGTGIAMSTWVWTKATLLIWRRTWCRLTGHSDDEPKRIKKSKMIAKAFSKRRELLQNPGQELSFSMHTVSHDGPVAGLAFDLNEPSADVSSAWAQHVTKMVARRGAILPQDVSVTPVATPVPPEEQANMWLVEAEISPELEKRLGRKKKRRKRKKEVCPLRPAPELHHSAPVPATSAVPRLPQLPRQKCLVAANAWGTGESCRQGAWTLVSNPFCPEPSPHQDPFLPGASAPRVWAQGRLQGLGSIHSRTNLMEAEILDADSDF
- measurement description: 8×-GLI-luciferase reporter in SHHN stimulated Smo−/− MEFs expressing SMO^WT
pIC50: −log10 of the molar value.
endpoint label: pIC50

input: # return recorded pIC50 for input CCC(C)n1ncn(-c2ccc(N3CCN(c4ccc(OCC5COC(Cn6cncn6)(c6ccc(Cl)cc6Cl)O5)cc4)CC3)cc2)c1=O (stereo not shown) [itraconazole]
output: ~6.22

---

- Test system: Ptch^+/−; p53^−/− MB tumorspheres expressing endogenous SMO^WT
- measurement description: MB tumorsphere proliferation
- Type: cell-based
- condition parameters: Mus musculus, 96 h, read-out: IC50 anti-proliferative activity
endpoint label: pIC50
In simple prose, pIC50 is minus the logarithm base ten of a concentration in moles per litre.

input: # return recorded pIC50 for input CCC(C)n1ncn(-c2ccc(N3CCN(c4ccc(OCC5COC(Cn6cncn6)(c6ccc(Cl)cc6Cl)O5)cc4)CC3)cc2)c1=O (stereo not shown)
output: 7.26

---

- Tested on: Gli1 mRNA
- measurement description: Gli1 mRNA transcription in MB tumorspheres
- Format: cell-based
- condition parameters: Mus musculus, 24 h, read-out: IC50 for Gli1 mRNA transcription
pIC50: −log10 of the molar value.
endpoint label: pIC50

input: # return recorded pIC50 for input CCC(C)n1ncn(-c2ccc(N3CCN(c4ccc(OCC5COC(Cn6cncn6)(c6ccc(Cl)cc6Cl)O5)cc4)CC3)cc2)c1=O (stereo not shown)
output: ~7.00
